System: HOP-92 NSCLC
Experiment: NCI-60 one-dose screen, 48 h
Settings: 10 µM unless noted
About 83,000 compounds went through this panel and 20% of them were active in at least one assay; those are over-represented in the sample as a whole. Activity calls are given as the source filed them. Rule for the calls: active = growth percent below 10; inactive = the rest.
Labels: y (active), n (inactive)

| SMILES NOTATION | TARGET DESC | LABEL CLASS |
| --- | --- | --- |
| C=C1C(=O)O[C@H]2[C@H]1CC/C(C(=O)NCCOCCOCC(=O)Nc1ccc(OC)c(C(N)=O)c1O)=C\CC[C@@]1(C)O[C@@H]21 | HOP-92 NSCLC | n |
| Nn1c(SCC(=O)Nc2cc(Cl)c(Cl)cc2Cl)nnc1-c1cc(F)c(Cl)cc1Cl | HOP-92 NSCLC | n |
| COc1cc(NC(=O)c2cc(OC)c3ccn(C)c3c2)cc2c1C[C@]1(C)CC[C@@H](O)C(C)(C)[C@H]1O2 | HOP-92 NSCLC | n |
| COc1cc(C(=O)NNC(=O)c2ccccc2C(=O)O)cc(OC)c1OC | HOP-92 NSCLC | n |
| C#C[C@@]1(O)[C@@H](CO)O[C@@H](n2cc(C(F)(F)F)c3c(N)ncnc32)[C@@H]1O | HOP-92 NSCLC | y |
| O=C(Nc1cccc(-n2ccc3c(NC(=O)c4ccccc4)ncnc32)c1)Nc1ccc(Cl)c(C(F)(F)F)c1 | HOP-92 NSCLC | n |
| O[C@@H]1CCO[C@H](c2ccc3ccccc3c2)C1 | HOP-92 NSCLC | n |
| O=C(Nc1ccc(-n2ccc3c(NC(=O)c4ccccc4)nccc32)cc1)Nc1cccc(C(F)(F)F)c1 | HOP-92 NSCLC | n |
| O=C1c2ccccc2C(=O)c2c(NCCN=Cc3c(O)ccc4ccccc34)cccc21 | HOP-92 NSCLC | n |
